Parameter: pKd. Scope: all listed entries.
targetUnderTest: T1, cTnI quality control product recombinant protein (human, UniProt P19429 2-210, limits assumed)
T1 construct: treated as the same molecule; also called cTnI antigen; cardiac troponin I
T1 sequence (P19429 2-210 limits assumed): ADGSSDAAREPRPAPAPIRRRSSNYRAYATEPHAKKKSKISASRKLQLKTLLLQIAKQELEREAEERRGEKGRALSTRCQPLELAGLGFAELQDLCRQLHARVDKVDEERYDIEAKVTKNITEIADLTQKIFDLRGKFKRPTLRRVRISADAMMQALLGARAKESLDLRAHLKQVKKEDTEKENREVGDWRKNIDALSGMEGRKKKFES
measurementNotes: AMC sensor, antibody immobilised, cTnI in solution
pKd: −log10 of the molar value.
measuredAttribute: pKd

| binder | readoutValue |
| --- | --- |
| Mutation 1-48 (antibody, V domains shown, Built as m8) VH: EVQLQQSGPELVKPGASVKMSCKASGYTFTIYVVHWVKQKPGQGLEWIGYIYPYIDGTKYNEKFKGKATLTVDKSSSTAFMELSSLTSEDSAVYYCARSGYGQYGLAWLAYWGQGTLVTVSA VL: QAVVIQESALTTSPGETVTLTCRSSTGAATTSNYANWVQEKPDHLFTGLIGGSNNRAPGVPARFSGSLIGDKAALTITGAQTEDEAIYFCALVYSNQWVFGGGTKLTVLG | 9.26 |
| Mutation 1-34 (antibody, V domains shown, Built as m8) VH: EVQLQQSGPELVKPGASVKMSCKASGYTFTLYVLHWVKQKPGQGLEWIGYIQPYIDGTKYNEKFKGKATLTVDKSSSTAFMELSSLTSEDSAVYYCARSGYGNYGLAWLAYWGQGTLVTVSA VL: QAVVIQESALTTSPGETVTLTCRSSTGAATTSNYANWVQEKPDHLFTGLIGGSNNRAPGVPARFSGSLIGDKAALTITGAQTEDEAIYFCALVYSNHWVFGGGTKLTVLG | 8.47 |
